ASSAY_TARGET: T1, 6His-AviTag-linked cynomolgus monkey IL-33 (residues 112 to 269) (cynomolgus monkey, UniProt O95760 112-269 (human entry), biotin on the AviTag portion (BirA) in the SPR of Example 7; used without biotinylation in Example 10)
T1 construct: GenBank EHH57404 printed; also called cynomolgus monkey IL-33 protein; mature cynomolgus monkey IL-33
T1 chain: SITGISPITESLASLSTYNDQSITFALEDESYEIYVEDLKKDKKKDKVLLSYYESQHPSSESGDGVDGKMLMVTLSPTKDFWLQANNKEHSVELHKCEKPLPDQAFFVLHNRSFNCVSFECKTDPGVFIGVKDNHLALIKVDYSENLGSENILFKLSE
EXPERIMENT_SUMMARY: SPR, IL-33 on chip, Fab supernatant as analyte
ATTRIBUTE_MEASURED: koff

BINDER	koff
A26-2B01 (Fab) (Fab, V domains shown, Fab secreted by E. coli, tested as culture supernatant; also called V20) VH: EVQLLESGGGLVQPGGSLRLSCAASGFTFSNYYMHWVRQAPGKGLEWVSSISARSSYIYYADSVKGRFTISRDNSKNTLYLQMNSLRAEDTAVYYCARLATRHNAFDIWGQGTLVTVSS VL: QSVLTQPPSASGTPGQRVTISCSGSSSNIGNNAVNWYQQLPGTAPKLLIYASNMRRLGVPDRFSGSKSGTSASLAISGLRSEDEADYYCAAWDDSQKAWVFGGGTKLTVL	1e-05 s⁻¹
A12-1E04 (Fab) (Fab, V domains shown, Fab secreted by E. coli, tested as culture supernatant; also called V2) VH: EVQLLESGGGLVQPGGSLRLSCAASGFTFSDYYMNWVRQAPGKGLEWVSSISRYSGYVYYADSVKGRFTISRDNSKNTLYLQMNSLRAEDTAVYYCARDIGGMDVWGQGTLVTVSS VL: QSVLTQPPSASGTPGQRVTISCTGSSSNIGAVYDVHWYQQLPGTAPKLLIYRNNQRPSGVPDRFSGSKSGTSASLAISGLRSEDEADYYCQSYDSSRWVFGGGTKLTVL	5.58e-05 s⁻¹
A25-2E04 (Fab) (Fab, V domains shown, Fab secreted by E. coli, tested as culture supernatant; also called V11) VH: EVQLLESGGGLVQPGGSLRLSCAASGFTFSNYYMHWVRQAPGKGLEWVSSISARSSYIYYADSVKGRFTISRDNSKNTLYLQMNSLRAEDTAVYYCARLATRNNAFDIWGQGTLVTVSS VL: QSVLTQPPSASGTPGQRVTISCSGSCSNIGRNAVNWYQQLPGTAPKLLIYASNMRVIGVPDRFSGSKSGTSASLAISGLRSEDEADYYCEAWDDSQKGVVFGGGTKLTVL	1e-05 s⁻¹
A25-2C07 (Fab) (Fab, V domains shown, Fab secreted by E. coli, tested as culture supernatant; also called V13) VH: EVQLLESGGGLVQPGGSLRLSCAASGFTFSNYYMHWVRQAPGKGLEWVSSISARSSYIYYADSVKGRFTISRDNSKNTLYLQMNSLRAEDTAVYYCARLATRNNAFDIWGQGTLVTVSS VL: QSVLTQPPSASGTPGQRVTISCSGSSSNIGNNAVNWYQQLPGTAPKLLIYASNMRGSGVPDRFSGSKSGTSASLAISGLRSEDEADYYCAAWDDSQKGQVFGGGTKLTVL	7.37e-05 s⁻¹

Look up koff of A25-2H11 (Fab) (Fab, V domains shown, Fab secreted by E. coli, tested as culture supernatant; also called V14) VH: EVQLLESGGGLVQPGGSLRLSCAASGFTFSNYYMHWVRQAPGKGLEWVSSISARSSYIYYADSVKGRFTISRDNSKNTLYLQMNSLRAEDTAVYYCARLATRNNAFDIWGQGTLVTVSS VL: QSVLTQPPSASGTPGQRVTISCSGSSSNIGSNAVSWYQQLPGTAPKLLIYASNMRGSGVPDRFSGSKSGTSASLAISGLRSEDEADYYCAAWDDSQKVVVFGGGTKLTVL and report it.
2.57e-05 s⁻¹
